Source: patent US5646131A

# runDescription: physchem
# testParameters: water
Below is a list of entries, each paired with its recorded solubility value.

>  <compound>
CC(C)Cc1ccc(C(C)C(=O)O)cc1 (stereo not drawn) [Ibuprofen]

>  <solubility>
< 10 µg/mL

$$$$
>  <compound>
COc1cc(N)c(Cl)cc1C(=O)NC1CCN(CCCOc2ccc(F)cc2)CC1OC (stereo not drawn) [Cisapride]

>  <solubility>
3 µg/mL

$$$$
>  <compound>
CC(C)(C)c1ccc(C(O)CCCN2CCC(C(O)(c3ccccc3)c3ccccc3)CC2)cc1 (stereo not drawn) [Terfenadine]

>  <solubility>
< 10 µg/mL

$$$$
